All figures here come from PubChem BioAssay (NCI).

System: UACC-257 melanoma
ASSAY METHOD TEXT: NCI tumour cell line growth inhibition, 48 h
OUTCOME MEASURE: GI50

Record excerpt, results attached:
- COMPOUND: "CCCCN(CCCC)CCC(O)c1cc2ccc(C(F)(F)F)cc2c2cc(C(F)(F)F)ccc12 (stereo not given)"
  OUTCOME MEASURE: "GI50"
  TEST VALUE: "2.15 µM"
- COMPOUND: "NS(=O)(=O)c1ccc(N2N=C(c3cccs3)CC2c2ccccc2O)cc1 (stereo not given)"
  OUTCOME MEASURE: "GI50"
  TEST VALUE: "1.47 µM"
- COMPOUND: "O=C(Cn1c2ccccc2c2ccncc21)N/N=C\\c1ccc2ccccc2c1"
  OUTCOME MEASURE: "GI50"
  TEST VALUE: "42.1 µM"
- COMPOUND: "Cc1ccc(-c2c3c(N)c4c(nc3nc3c2c(C)nn3-c2ccccc2)CCC4)cc1"
  OUTCOME MEASURE: "GI50"
  TEST VALUE: "14.1 µM"

Query block: For COc1ccc2c(c1)C=C1CSCC3=Cc4cc(OC)ccc4OC13O2 , what is its reported GI50?
Result block: > 100 µM

Query block: Field entry: COc1cc2nc(N3CCC[C@@H](NC4=CC(=O)c5ccccc5C4=O)C3)nc(N)c2cc1OC
Result block: 16.6 µM

Query block: Field entry: O=C1NC(SCc2ccc(F)cc2)=N/C1=C/c1cccc(OCc2ccc(Cl)cc2)c1
Result block: > 100 µM

Query block: Field entry: O=CN1N=C(c2ccc(Nc3ccnc4cc(Cl)ccc34)cc2)CC1c1ccc(Cl)cc1 (stereo not given)
Result block: > 100 µM

Query block: Field entry: Nc1ccccc1C#C/C=C\C#Cc1ccccc1F
Result block: 15.7 µM

Query block: Field entry: Cc1cn(Cc2ccccc2CCl)c(=O)n(Cc2ccccc2CCl)c1=O
Result block: 2.25 µM

* * *

Reported TGI values for a set of compounds
Tested on: 786-0 renal
ASSAY METHOD TEXT: NCI tumour cell line growth inhibition, 48 h

Record excerpt, results attached:
- COMPOUND: "Cn1nc(C(=O)N2CC(CCl)c3c2cc([N+](=O)[O-])c2ccccc32)cc1NC(=O)Nc1cc(C(=O)N2CC(CCl)c3c2cc([N+](=O)[O-])c2ccccc32)nn1C (stereo not given)"
  TEST VALUE: "> 100 µM"
- COMPOUND: "COc1ccc(OC)c(/C=N/N=C2\\C(=O)Nc3c(Cl)cc(Cl)cc32)c1"
  TEST VALUE: "> 100 µM"
- COMPOUND: "S=C(Nc1cccc(C2(N3CCCCC3)CCCCC2)c1)Nc1cccc(C2(N3CCCCC3)CCCCC2)c1"
  TEST VALUE: "30.5 µM"

Query block: Form field: TGI recorded for Cc1ccccc1NC(=O)CSc1nnc(Cc2ccccc2)o1 with 786-0 renal (enter value)
Result block: > 100 µM

Query block: Field entry: COC(=O)C1=C(c2ccc(Cl)cc2)C(O)N=C(NN)N1 (stereo not given)
Result block: > 100 µM

Query block: Field entry: CN(C)c1ncnc2c1ccn2C1OC(CO)C(O)C1O (stereo not given)
Result block: 97.8 µM

Query block: Field entry: Cc1cc(C(O)CNC(C)CCn2cnc3c2c(=O)n(C)c(=O)n3C)ccc1O (stereo not given)
Result block: > 100 µM

Query block: Field entry: Cc1ccc(Nc2cn(COCc3ccccc3)c(=O)[nH]c2=O)cc1
Result block: > 100 µM

Query block: Field entry: N#Cc1c(N2CCOCC2)ncn(-c2ccc(Cl)cc2)c1=O
Result block: > 100 µM

Query block: Field entry: Nc1cc(-c2ccccc2)n(C(=O)Nc2ccc(Oc3ccccc3)cc2)n1
Result block: > 100 µM

* * *

System: MDA-MB-231 breast
ASSAY METHOD TEXT: NCI tumour cell line growth inhibition, 48 h
Reported TGI values for a set of compounds
Field: numeric (µM). Do not append units.

Record excerpt, results attached:
- COMPOUND: "O=C1c2ccn(CCCCN(CCO)CCO)c2C(=O)c2c1c(O)c1ccccc1c2O"
  ENDPOINT UNIT: "µM"
  TGI: 3.97
- COMPOUND: "O=C1COCCN1c1ccc(NCc2cn(C(=O)c3ccc(Cl)cc3)c3ccccc23)cc1"
  ENDPOINT UNIT: "µM"
  TGI: 22.9
- COMPOUND: "CC1(C)CC2(C)ON=C(c3ccccc3)N2c2ccccc2N1 (configuration not stated)"
  ENDPOINT UNIT: "µM"
  TGI: 28.7

Query block: For CC(C)=CCc1cc(C2COc3cc4c(c(O)c3C2=O)C=CC(C)(C)O4)c(O)cc1O (configuration not stated) , what is its reported TGI?
Result block: 27.5

Query block: Field entry: CCOC(=O)c1ccc(Nc2cnc3ccc(C(F)(F)F)cc3n2)cc1
Result block: 43.7

Query block: Field entry: Cc1cn(Cc2ccccc2CCl)c(=O)n(Cc2ccccc2CCl)c1=O
Result block: 3.57

Query block: Field entry: O=c1c(Sc2ncccn2)c(Sc2ncccn2)cnn1CCl
Result block: 19

Query block: Field entry: Oc1ccc(O)c2c1C1(Cl)C(Cl)=C(Cl)C2(Cl)C1(Cl)Cl
Result block: 23

Query block: Field entry: Cc1ccc(-c2c3c(N)c4c(nc3nc3c2c(C)nn3-c2ccccc2)CCC4)cc1
Result block: 3.98

Query block: Field entry: c1ccc(/C(=N\Nc2ccc3ccccc3n2)c2ccccn2)cc1
Result block: 43.4

Query block: Field entry: NCCSC(C[N+](=O)[O-])c1ccccc1Cl (configuration not stated)
Result block: 25.8

* * *

Tested on: HCC-2998 colon
ASSAY METHOD TEXT: NCI tumour cell line growth inhibition, 48 h
OUTCOME MEASURE: TGI

Record excerpt, results attached:
- MOLECULE: "CC1=C(C(=O)NC(C)(C)C)CC(C(=O)NC(C)(C)C)C(C)N1 (stereo not drawn)"
  TGI: "> 100 µM"
- MOLECULE: "Cc1nc(Nc2nc3ccccc3[nH]2)[nH]c(=O)c1CCO"
  TGI: "> 100 µM"

Below: the item to evaluate.
Query block: For O=C(CC(=O)c1ccccc1)C(=O)NC12CC3CC(CC(C3)C1)C2 , what is its reported TGI?
Result block: > 100 µM

* * *

Test system: HCC-2998 colon
ASSAY METHOD TEXT: NCI tumour cell line growth inhibition, 48 h
Reported TGI values for a set of compounds

- COMPOUND: "CC[C@H](C)[C@H]1NC(=O)[C@@H](NC(=O)[C@@H](CC(C)C)N(C)C(=O)C2CCCN2C(=O)[C@H](C)O)[C@@H](C)OC(=O)[C@H](Cc2ccccc2)N(C)C(=O)[C@@H]2CCCN2C(=O)[C@H](CC(C)C)NC(=O)[C@@H](C)C(=O)[C@H](C(C)C)OC(=O)C[C@@H]1O (some centres undefined)"
  TGI: "0.00678 µM"
- COMPOUND: "c1ccc(CSC(SCc2ccccc2)c2ccc3c(c2)OCO3)cc1"
  TGI: "> 10 µM"
- COMPOUND: "O=C(O)c1cc(=O)c2cc(C(=O)c3cccs3)c(Cl)c(Cl)c2o1"
  TGI: "> 100 µM"
- COMPOUND: "O=C(CC(=O)C1CCOC1=O)C(=O)Nc1ccc(Cl)cc1 (centres undefined)"
  TGI: "> 100 µM"
- COMPOUND: "CCc1c2c(nc3ccc(OCc4ccc(B5OC(C)(C)C(C)(C)O5)cc4)cc13)-c1cc3c(c(=O)n1C2)COC(=O)[C@]3(O)CC"
  TGI: "> 100 µM"

Query block: For CCOC(=O)NC(=S)NC(C)c1ccccc1 (centres undefined) , what is its reported TGI?
Result block: > 100 µM

Query block: Field entry: CN(C)N=Nc1nn(C(=O)Nc2ccc(Cc3ccccc3)cc2)c2ccccc12
Result block: > 47.7 µM

Query block: Field entry: O=C1NN=C(c2ccc([N+](=O)[O-])cc2)C1n1nc(-c2ccccc2)c2ccccc2c1=O (centres undefined)
Result block: > 100 µM

Query block: Field entry: N#CCN(Cc1ccccc1)[C@@H]1CCC[C@]1(O)C#Cc1ccc2c(c1)OCO2
Result block: 31.5 µM

Query block: Field entry: CC(C)=CCc1cc(C2COc3cc4c(c(O)c3C2=O)C=CC(C)(C)O4)c(O)cc1O (centres undefined)
Result block: 32.7 µM

Query block: Field entry: Cc1nc(N(CCO)CCO)c2sc(=S)n(-c3ccccc3)c2n1
Result block: > 100 µM

Query block: Field entry: COC(=O)Nc1nc2ccc(S(=O)(=O)c3ccc(NC(=O)Nc4cc(C(F)(F)F)ccc4F)cc3)cc2[nH]1
Result block: > 25 µM

Query block: Field entry: COc1cc(/C=C\c2ccc(Cl)cc2)cc(OC)c1OC
Result block: 32.7 µM

Query block: Field entry: Cc1cc(-c2ccc(C(=O)C(c3ccccc3)(c3ccccc3)c3ccccc3)[nH]2)on1
Result block: 25.6 µM

Query block: Field entry: COc1cc2nncc(SCc3ccc(Cl)c(Cl)c3)c2cc1OC
Result block: > 100 µM

Query block: Field entry: N#Cc1c(N2CCOCC2)ncn(-c2ccc(Cl)cc2)c1=O
Result block: > 100 µM

Query block: Field entry: Cn1c2ccccc2c2[nH]c3ccccc3c(=O)c21
Result block: > 100 µM

Query block: Field entry: Cc1ncc(CO)c(C=NCCCCCCN=Cc2c(CO)cnc(C)c2O)c1O
Result block: > 100 µM

Query block: Field entry: CCN1C(=O)CS/C1=N\NC(=O)CSc1nc2ccccc2c(=O)n1CC
Result block: > 100 µM
